- PROTOCOL_DESCRIPTION: Stability in aqueous solution
- Type: physicochemical
- EXPERIMENTAL_PARAMETERS: neutral aqueous solution; hydrochloride(s)
RECORDED_METRIC: Stability

Enquiry: # get_value(readout='Stability', item= CC(N)C(=O)NC(C)C(=O)NC(CCCNC(=N)N)C(O)CC(=O)OCC1=C(C(=O)O)N2C(=O)[C@@H](NC(=O)CCCC(N)C(=O)O)C2SC1 (stereo partly drawn) [TAN-547E] )
Return: Slightly unstable

Enquiry: # get_value(readout='Stability', item= CC(N)C(=O)NC(CCCNC(=N)N)C(O)CC(=O)OCC1=C(C(=O)O)N2C(=O)[C@@H](NC(=O)CCCC(N)C(=O)O)C2SC1 (stereo partly drawn) [TAN-547D] )
Return: Slightly unstable
